Source of measurements: patent US20240408068A1

Consider the following compounds; for each one, report its pIC50.
Tested on: HSV-1
ASSAY SUMMARY: In vitro activity, HSV-1 infected Vero cells
Assay type: cell-based
Remember the convention: pIC50 equals -log10 of concentration in molar.

Query string: Tell me its pIC50 given Cc1nc(N(C)C(=O)C2Cc3ccc(-c4cc(F)ccc4F)cc3C2)sc1S(C)(=N)=O (single isomer, unassigned) [Example 9] as the entry.
Result string: 5.00

Query string: Kindly indicate its recorded pIC50. Item: Cc1nc(N(C)C(=O)C2Cc3ccc(-c4cc(F)ccc4F)cc3C2)sc1S(N)(=O)=O (single isomer, unassigned; (+)) [Example 3]
Result string: 9.30

Query string: Quickly give me recorded pIC50 for Cc1nc(N(C)C(=O)C2Cc3ccc(-c4cc(F)ccc4F)cc3C2)sc1S(C)(=N)=O (single isomer, unassigned) [Example 8]
Result string: 6.76

Query string: // fetch pIC50 given entry Cc1nc(N(C)C(=O)C2Cc3ccc(-c4cc(F)ccc4F)cc3C2)sc1S(N)(=O)=O (single isomer, unassigned; (-)) [Example 2]
Result string: 5.70

Query string: # return recorded pIC50 for input Cc1nc(N(C)C(=O)C2Cc3ccc(-c4cc(F)ccc4F)cc3C2)sc1S(C)(=N)=O (single isomer, unassigned) [Example 5]
Result string: 4.70

Query string: Provide only the value of recorded pIC50 for Cc1nc(N(C)C(=O)C2Cc3ccc(-c4cc(F)ccc4F)cc3C2)sc1S(C)(=N)=O (single isomer, unassigned) [Example 6]
Result string: 7.12
